PROCEDURE_DETAILS: Therapeutic Index is the […] of the IC50 to that of EC50
Format: cell-based
CONDITION_NOTES: human, H9 cells; read-out: TI

>  <COMPOUND>
C=C(C)[C@@H]1CC[C@]2(/C=N/O)CC[C@]3(C)[C@H](CC[C@@H]4[C@@]5(C)CC/C(=N\O)C(C)(C)[C@@H]5CC[C@]43C)[C@@H]12

>  <READOUT_RELATION>
=

>  <selectivity ratio>
5.1

$$$$
>  <COMPOUND>
C=C(C)[C@@H]1CC[C@]2(COC(=O)CC(C)(CC)CC(=O)O)CC[C@]3(C)[C@H](CC[C@@H]4[C@@]5(C)CC[C@H](OC(=O)CC(C)(CC)CC(=O)O)C(C)(C)[C@@H]5CC[C@]43C)[C@@H]12 (stereo not given in full)

>  <READOUT_RELATION>
=

>  <selectivity ratio>
3480

$$$$
>  <COMPOUND>
C=C(COC(C)=O)[C@@H]1CC[C@]2(COC(C)=O)CC[C@]3(C)[C@H](CC[C@@H]4[C@@]5(C)CC[C@H](OC(C)=O)C(C)(C)[C@@H]5CC[C@]43C)[C@@H]12

>  <READOUT_RELATION>
=

>  <selectivity ratio>
2.5

$$$$
>  <COMPOUND>
C=C(C)[C@@H]1CC[C@]2(COC(=O)CC(C)(C)CC(=O)O)CC[C@]3(C)[C@H](CC[C@@H]4[C@@]5(C)CCC(=O)C(C)(C)[C@@H]5CC[C@]43C)[C@@H]12

>  <READOUT_RELATION>
=

>  <selectivity ratio>
2.9

$$$$
>  <COMPOUND>
C=C(C)[C@@H]1CC[C@]2(COC(C)=O)CC[C@]3(C)[C@H](CC[C@@H]4[C@@]5(C)CC[C@H](OC(C)=O)C(C)(C)[C@@H]5CC[C@]43C)[C@@H]12 [BETULIN DIACETATE]

>  <READOUT_RELATION>
<

>  <selectivity ratio>
1

$$$$
